MEASURED TARGET: N1-BR18 (IAV neuraminidase) (Influenza A virus)
ASSAY REMARKS: Fluorescence-based inhibition assay (substrate Neu5Acα2-3GalβMU, β-galactosidase coupled)
Type: biochemical, influenza A virus A/Brisbane/02/2018 (H1N1)
TEST CONTEXT: read-out: Percentage inhibition against N1-BR18 (IAV), inhibitor 8.0 μM, substrate Neu5Acα2-3GalβMU 8.0 μM; Example 2, Table 2
// reported inhibition at 8 µM for each item listed
Kindly provide the numeric value in % only, without the unit symbol.

MOLECULE	MEASURED TARGET	UNIT SPEC	inhibition at 8 µM
CC(=O)N[C@@H]1C(N)C[C@](OC2C(O)[C@H](Oc3ccc([N+](=O)[O-])cc3)OC(CO)[C@@H]2O)(C(=O)O)OC1[C@H](O)[C@H](O)CO (stereo partly shown) [4NH2Neu5Acα2-3GalβpNP]	N1-BR18 (IAV neuraminidase) (Influenza A virus)	%	61

QUERY: Sample CC(=O)N[C@@H]1C(O)C[C@](OC2C(O)[C@H](Oc3ccc([N+](=O)[O-])cc3)OC(CO)[C@@H]2O)(C(=O)O)OC1[C@H](O)[C@H](O)CO (stereo partly shown) [Neu5Acα2-3GalβpNP, reference compound] — what was its inhibition at 8 µM?
RESULT: 2.3

QUERY: Sample CC(=O)NC1C[C@](OCC2O[C@@H](Oc3ccc([N+](=O)[O-])cc3)C(O)C(O)[C@H]2O)(C(=O)O)OC([C@H](O)[C@H](O)CO)[C@@H]1NC(C)=O (stereo partly shown) [4NAcNeu5Acα2-6GalβpNP] — what was its inhibition at 8 µM?
RESULT: 0

QUERY: Sample CC(=O)N[C@@H]1C(N=[N+]=[N-])C[C@](OCC2O[C@@H](Oc3ccc([N+](=O)[O-])cc3)C(O)C(O)[C@H]2O)(C(=O)O)OC1[C@H](O)[C@H](O)CO (stereo partly shown) [4N3Neu5Acα2-6GalβpNP] — what was its inhibition at 8 µM?
RESULT: 0

QUERY: Sample CC(=O)N[C@@H]1C(N)C[C@](OCC2O[C@@H](Oc3ccc([N+](=O)[O-])cc3)C(O)C(O)[C@H]2O)(C(=O)O)OC1[C@H](O)[C@H](O)CO (stereo partly shown) [4NH2Neu5Acα2-6GalβpNP] — what was its inhibition at 8 µM?
RESULT: 15

QUERY: Sample CC(=O)N[C@H]1[C@H]([C@H](O)[C@H](O)CO)OC(O)(C(=O)O)C[C@@H]1N (stereo partly shown) [4NH2Neu5Ac (8), 4-amino-4-deoxy-N-acetylneuraminic acid] — what was its inhibition at 8 µM?
RESULT: 28.6

QUERY: Sample CC(=O)NC1C[C@](OC2C(O)[C@H](Oc3ccc([N+](=O)[O-])cc3)OC(CO)[C@@H]2O)(C(=O)O)OC([C@H](O)[C@H](O)CO)[C@@H]1NC(C)=O (stereo partly shown) [4NAcNeu5Acα2-3GalβpNP] — what was its inhibition at 8 µM?
RESULT: 3.2
